Tested on: Sudan virus (Yambio)
Assay: microbe, parasite or virus in culture
Format: cell-based
Conditions: Sudan ebolavirus, HeLa; n = 1; read-out: Antiviral activity EC50
Value kind: EC50
Write your answer as a measured quantity: the number, then the unit.

Using known records, supply EC50 for CCC(CC)COC(=O)[C@H](C)N[P@](=O)(OC[C@H]1O[C@@](C#N)(c2ccc3c(N)ncnn23)[C@H](O)[C@@H]1O)Oc1ccccc1 [RDV, Remdesivir]
130 nM

###

Test: Compound cytotoxicity by MTS dye reduction
Details: human, RD cells, listed as Enterovirus 71
Value kind: CC50 (µM)
Form entry: value (µM) — number only.

Read off the recorded CC50 for CCC(CC)COC(=O)[C@H](C)N[P@](=O)(OC[C@H]1O[C@@](C#N)(c2ccc3c(N)ncnn23)[C@H](O)[C@@H]1O)Oc1ccccc1
3.31
